EC50 reference
system: A549 cell line; assay: In vitro cell proliferation assay (MTT), A549; format: cell-based; conditions: Homo sapiens, A549, 72 h; read-out: EC50, anti-proliferative activity

# annotated cases, reported EC50 shown
Smiles Entry: CC(=O)c1cc2cc(NCc3cc(NC(=O)c4cc(N5CCN(C)CC5)cc(C(F)(F)F)c4)ccc3F)cnc2[nH]1
Measured Endpoint: EC50
Obs Value: 100 to 1000 nM
//
Smiles Entry: CC(=O)c1cc2cc(NCc3cccc(NC(=O)c4ccc(CN5CCN(C)CC5)c(C(F)(F)F)c4)c3)cnc2[nH]1
Measured Endpoint: EC50
Obs Value: 100 to 1000 nM

// switching to the query compound
Data request: Read the entry CC(=O)c1cc2cc(NCc3cc(NC(=O)c4ccc(CN5CCN(C)CC5)c(C(F)(F)F)c4)ccc3C)cnc2[nH]1 and write its reported EC50.
Data returned: ≤ 100 nM
